Target: Human CDK12 wt/CycK (Homo sapiens (Human))
Sequence (Q9NYV4 whole entry): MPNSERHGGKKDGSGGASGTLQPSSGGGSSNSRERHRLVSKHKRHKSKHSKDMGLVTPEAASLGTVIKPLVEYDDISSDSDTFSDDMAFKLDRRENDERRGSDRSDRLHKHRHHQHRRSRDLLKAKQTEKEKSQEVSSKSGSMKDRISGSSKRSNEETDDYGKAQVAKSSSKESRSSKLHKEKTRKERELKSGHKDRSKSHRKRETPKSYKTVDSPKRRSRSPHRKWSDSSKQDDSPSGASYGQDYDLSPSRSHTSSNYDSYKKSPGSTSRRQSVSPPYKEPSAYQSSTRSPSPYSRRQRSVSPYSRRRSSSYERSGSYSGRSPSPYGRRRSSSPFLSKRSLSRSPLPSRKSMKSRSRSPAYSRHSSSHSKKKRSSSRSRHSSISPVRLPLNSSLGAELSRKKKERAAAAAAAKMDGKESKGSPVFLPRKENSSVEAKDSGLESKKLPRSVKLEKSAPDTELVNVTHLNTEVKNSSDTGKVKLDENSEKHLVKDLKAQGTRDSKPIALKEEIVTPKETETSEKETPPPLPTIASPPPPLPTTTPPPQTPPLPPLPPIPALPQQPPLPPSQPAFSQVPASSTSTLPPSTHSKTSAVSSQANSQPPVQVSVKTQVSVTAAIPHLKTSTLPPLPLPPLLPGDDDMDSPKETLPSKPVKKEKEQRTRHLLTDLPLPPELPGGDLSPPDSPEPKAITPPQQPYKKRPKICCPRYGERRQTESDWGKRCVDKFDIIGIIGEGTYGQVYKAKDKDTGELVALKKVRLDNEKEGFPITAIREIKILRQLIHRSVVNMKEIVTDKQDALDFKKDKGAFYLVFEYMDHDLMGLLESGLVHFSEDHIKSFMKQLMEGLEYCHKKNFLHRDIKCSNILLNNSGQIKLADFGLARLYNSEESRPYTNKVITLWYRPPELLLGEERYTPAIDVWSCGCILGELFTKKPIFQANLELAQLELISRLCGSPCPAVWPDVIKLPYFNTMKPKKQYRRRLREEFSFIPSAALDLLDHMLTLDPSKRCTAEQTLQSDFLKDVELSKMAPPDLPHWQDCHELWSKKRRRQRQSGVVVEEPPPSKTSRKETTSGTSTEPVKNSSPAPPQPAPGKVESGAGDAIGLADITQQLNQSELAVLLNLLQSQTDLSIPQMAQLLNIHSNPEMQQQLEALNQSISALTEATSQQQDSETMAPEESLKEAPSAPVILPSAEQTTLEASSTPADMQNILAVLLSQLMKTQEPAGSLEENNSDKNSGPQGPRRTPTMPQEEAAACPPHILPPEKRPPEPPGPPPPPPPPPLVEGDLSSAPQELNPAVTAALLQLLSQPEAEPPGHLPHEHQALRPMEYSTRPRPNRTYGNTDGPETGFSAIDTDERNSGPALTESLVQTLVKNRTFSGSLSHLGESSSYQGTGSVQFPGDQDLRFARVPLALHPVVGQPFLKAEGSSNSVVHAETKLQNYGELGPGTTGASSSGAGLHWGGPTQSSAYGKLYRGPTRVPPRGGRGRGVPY
Sequence (O75909 whole entry partner): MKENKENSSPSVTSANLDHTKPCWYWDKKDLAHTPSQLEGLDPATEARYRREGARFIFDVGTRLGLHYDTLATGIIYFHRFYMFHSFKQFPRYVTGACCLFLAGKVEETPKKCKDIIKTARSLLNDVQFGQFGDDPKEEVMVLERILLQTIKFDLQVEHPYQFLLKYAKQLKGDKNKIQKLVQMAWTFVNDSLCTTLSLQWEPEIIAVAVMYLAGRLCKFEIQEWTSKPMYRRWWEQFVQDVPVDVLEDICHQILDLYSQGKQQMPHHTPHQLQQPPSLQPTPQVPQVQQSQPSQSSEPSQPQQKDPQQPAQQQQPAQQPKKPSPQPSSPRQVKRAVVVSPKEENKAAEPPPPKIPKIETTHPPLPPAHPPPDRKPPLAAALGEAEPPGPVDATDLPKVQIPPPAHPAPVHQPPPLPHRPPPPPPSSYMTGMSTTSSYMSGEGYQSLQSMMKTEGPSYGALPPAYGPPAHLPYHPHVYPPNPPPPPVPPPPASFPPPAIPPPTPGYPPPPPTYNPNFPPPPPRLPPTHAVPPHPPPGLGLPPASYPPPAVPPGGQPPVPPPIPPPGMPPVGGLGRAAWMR
Experiment: Radiometric protein kinase assay (33PanQinase Activity Assay), CDK12
Format: biochemical
Details: ratio of CDK7 IC50 to CDK12 IC50; greater than 1 indicates selectivity for CDK12
value-type: CDK7/CDK12
Reply with the value as a number alone.

Input line: Quick check: CDK7/CDK12 of COc1cccnc1-c1ccc(CNc2cc(NC[C@H]3CCNC[C@@H]3O)nc3c(C(C)C)cnn23)cc1 ?
Output line: 1.3

Input line: What about this compound? Clc1cnn2c(NCc3ccc(-c4ccccn4)cc3)cc(N[C@H]3CCCNC3)nc12
Output line: 7.2

Input line: And then N#Cc1cnn2c(NCc3ccc(-c4ccccn4)cc3)cc(N[C@H]3CCCNC3)nc12 , what is it?
Output line: 18.1

Continuing:
Input line: Form field: reported CDK7/CDK12 of c1ccc(-c2ccc(CNc3cc(N4CCOCC4)nc4c(C5CC5)cnn34)cc2)nc1
Output line: 6.3

Input line: Same read-out for O[C@H]1CNCC[C@@H]1CNc1cc(NCc2ccc(-n3cccn3)cc2)n2ncc(C3CC3)c2n1 ?
Output line: 3.9

Where these numbers come from: patent US20240383900A1
